Conditions: human;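 also: steatosis confirmed by histopathology, value is the count of indexed references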
property: Hepatotoxicity (steatosis)
# respond with the number and nothing more

Let me know recorded Hepatotoxicity (steatosis) for `Nc1c(CC(=O)O)cccc1C(=O)c1ccc(Br)cc1` , thanks. 0

Check the records and state Hepatotoxicity (steatosis) for `Cc1ccc(C(=O)Nc2ccc(S(=O)(=O)O)c3cc(S(=O)(=O)O)cc(S(=O)(=O)O)c23)cc1NC(=O)c1cccc(NC(=O)Nc2cccc(C(=O)Nc3cc(C(=O)Nc4ccc(S(=O)(=O)O)c5cc(S(=O)(=O)O)cc(S(=O)(=O)O)c45)ccc3C)c2)c1` 0

Provide one value: measured Hepatotoxicity (steatosis) of `CO/N=C(\C(=O)N[C@@H]1C(=O)N2C(C(=O)[O-])=C(C[n+]3ccc(N)n3CCO)CS[C@H]12)c1csc(N)n1` 0
